test system: UACC-257; assay: NCI tumour cell line growth inhibition, 48 h
Calls of active or inactive are those of the source. Cut-off read from the data, not from the text of the source: active = GI50 up to about 1.1 µM and inactive = higher.
quantityKind: GI50

Some molecules with known GI50 results, for comparison:
molecule	testTarget	GI50
O=c1[nH]c2nc3ccccc3c(=O)n2/c1=C/c1ccccc1	UACC-257	23.7 µM (inactive)
N#Cc1c(N)[nH]c2ccc(Sc3ccccc3)cc12	UACC-257	12.8 µM (inactive)
CC[C@@H]([C@H](O)c1ccccc1Cl)[N+](=O)[O-]	UACC-257	> 100 µM (inactive)

# evaluate next
The molecule C=CC1CN(C(=O)OCC)N(C(=O)OCC)C1CCc1ccccc1 (centres undefined) showed GI50 equal to > 100 µM (inactive)

====

system: UACC-62; assay: NCI tumour cell line growth inhibition, 48 h
Calls of active or inactive are those of the source. No stated cut-off is given here; in the data, active = GI50 up to about 1.1 µM and inactive = higher.
quantityKind: GI50

Solved cases (3 shown):
molecule	testTarget	dataValue
CC1=CC[C@@H](C(C)(C)O)C[C@@H]1O	UACC-62	> 5000 µM (inactive)
Cc1cn([C@H]2C[C@H](O)[C@@H](CO)O2)c(=O)nc1N	UACC-62	> 100 µM (inactive)
CC1(F)C=CC(=O)C=C1	UACC-62	44.9 µM (inactive)

GI50 value, target or system UACC-62, for "Cc1ccc2c(c1)C(=O)N1CCC[C@H]1C=N2" : 16.6 µM (inactive)

The reported UACC-62 GI50 of COC1CCC(OS(C)(=O)=O)C(C)O1 (centres undefined) is > 10 µM (inactive)

// returns GI50 for CCC(C)(O)c1cn(-c2ccc(S(=O)(=O)O)cc2)nn1 (centres undefined) with UACC-62; value = > 100 µM (inactive)

// assay UACC-62, entry C/C(=C1/CCCC2(N=NCC2c2ccccc2)C1=O)c1ccccc1 (centres undefined) , GI50 value = 16.3 µM (inactive)

Record "OCCCSCCO" has UACC-62 GI50 equal to > 100 µM (inactive)

GI50 value, target or system UACC-62, for COc1ccc(SC(C)(SC)c2ccccn2)c(OC)n1 (centres undefined) : 87.3 µM (inactive)

====

test system: U-251; test: NCI tumour cell line growth inhibition, 48 h
Active and inactive are the calls of the source. No stated cut-off is given here; in the data, active = GI50 up to about 1.1 µM and inactive = higher.
GI50 values, listed per item

Look over these answered cases.
compound	testTarget	GI50
COc1ccc(N2C(=O)C3c4[nH]c5ccc(C)cc5c4C4CCC(C(C)C)CC4C3C2=O)cc1 (stereo unspecified)	U-251	47.6 µM (inactive)
O=[N+]([O-])c1ccc2c3c1[C@H]1O[C@H]1c1cccc(c1-3)[C@@H]1O[C@H]21	U-251	1.8 µM (inactive)
CCOC(=O)C1N(S(=O)(=O)c2ccc(C)cc2)CCC12c1ccccc1NC2c1ccc(OC)c(OC)c1 (stereo unspecified)	U-251	> 100 µM (inactive)
Cc1ccc(I)cc1N=C=S	U-251	19.5 µM (inactive)
CC(C)(C)N/N=C(\C(=O)Nc1ccc([N+](=O)[O-])cc1[N+](=O)[O-])c1nc2ccc([N+](=O)[O-])cc2nc1O	U-251	> 100 µM (inactive)

Fill in: U-251 GI50 for "C=CCN1C(=O)C(=O)N(CC=C)C(=O)C1=O" = > 100 µM (inactive)

Query "COC(=O)c1ccc(/N=N/N(C)COc2ccc(C#N)cc2)cc1" on U-251; GI50 returned: 98.6 µM (inactive)

Summary: "Cc1cc(OC(=O)Nc2cccc3ccccc23)c(C(C)C)cc1C(=S)Nc1ccccc1" , U-251, GI50 = 18.1 µM (inactive)

"CC(C)(C)c1ccccc1N1C(=O)c2ccc3c4c(ccc(c24)C1=O)N(c1ccccc1C(C)(C)C)C3=O" tested on U-251 gave GI50: > 100 µM (inactive)

Noted GI50 for CCC(C)N1CN(c2ccccc2)C2(CCN(CCCC(=O)c3ccc(F)cc3)CC2)C1=O (stereo unspecified) , tested on U-251: 4.47 µM (inactive)

Item "O=C(/C(=C\C(=O)c1cccs1)c1ccsc1)c1ccc(Br)cc1" ; assay system U-251; GI50 reported as > 100 µM (inactive)

====

tested on: T47D; assay: NCI tumour cell line growth inhibition, 48 h
Active and inactive are the calls of the source. Cut-off read from the data, not from the text of the source: active = GI50 up to about 1.1 µM and inactive = higher.
quantityKind: GI50

Example results:
compound	GI50
CCOC(=O)N(c1ccccc1)c1cc(=O)n2ccccc2n1	> 100 µM (inactive)
O=C1C=CC(=O)C(CNc2ccc(C(=O)OC34CC5CC(CC(C5)C3)C4)cc2)=C1Br	3.33 µM (inactive)
COc1ccc(/C=C2\CN(C)C/C(=C\c3ccc(OC)cc3)C2=O)cc1	> 100 µM (inactive)
COC1CCC(OS(C)(=O)=O)C(C)O1 (stereo not given)	> 10 µM (inactive)

Lab book: GI50 of "O=c1cc(N2CCNCC2)nc2ccccn12" noted as > 100 µM (inactive)

====

test system: MOLT-4; test: NCI tumour cell line growth inhibition, 48 h
Calls of active or inactive are those of the source. Rule as the data show it: active = GI50 up to about 1.1 µM and inactive = higher.
Can you answer with just one of these options? active, inactive

compound	assignedCategory
NCC(=O)Nc1ccccc1	inactive
Nc1ccc2n[se]nc2c1	inactive
CCCC(=O)Nc1cn(COC)c(C(=O)N2C[C@@H]3C[C@]34C2=CC(=O)c2[nH]cc(C)c24)n1	active
CCOC(=O)N(c1ccccc1)c1cc(=O)n2ccccc2n1	inactive

Please turn your attention to the following entry.
Tell me the recorded outcome of this test for CCCC(=O)C(CC)/C(CCC(=O)N(Cc1ccccc1)Cc1ccccc1)=N/NC(=O)C[N+](C)(C)C (stereo not given) .
inactive

====

Listing of recorded GI50 by entry.
tested on: KM12; assay: NCI tumour cell line growth inhibition, 48 h
Activity calls are given as the source filed them. No stated cut-off is given here; in the data, active = GI50 up to about 1.1 µM and inactive = higher.

Example cases with answers are listed next.
molecule	GI50
COc1cc2c3cc1Oc1c(OC)c(OC)cc4c1C(Cc1ccc(O)c(c1)-c1cc(ccc1OC)CC3N(C)CC2)N(C)CC4 (stereo unspecified)	17.5 µM (inactive)
O=C(NNC(=S)NCc1ccccc1)c1csc(NC(=S)NC2CCCCC2)n1	49.9 µM (inactive)
C/C=C/C(C#N)(Cc1ccccc1)OP1(=O)OC(c2ccccc2)C(C)N1C (stereo unspecified)	45.6 µM (inactive)
ClCCCN1CCN(CCCl)CC1	552 µM (inactive)
CCC(C)(O)c1cn(-c2ccc(S(=O)(=O)O)cc2)nn1 (stereo unspecified)	> 100 µM (inactive)
Clc1ncc(Cl)c(Cl)n1	9.14 µM (inactive)
CN1CCN(c2nc(N)c(Br)c(Cl)n2)CC1	> 100 µM (inactive)
C=C(C)C(O)CCC1(C)C=Cc2c(c(C)cc3c2[nH]c2ccccc23)O1 (stereo unspecified)	5.85 µM (inactive)
Nc1nc(=S)n(-c2ccc(Cl)cc2)c2nc3ccccc3cc12	29.3 µM (inactive)
CC(C)(C)[Si](C)(C)OCCC1CC2(S(=O)(=O)C3=CC=C=C=C3)ON1CC2S(=O)(=O)c1ccccc1 (stereo unspecified)	> 10 µM (inactive)

# GI50 of "CC(C)(C)c1ccccc1N1C(=O)c2ccc3c4c(ccc(c24)C1=O)N(c1ccccc1C(C)(C)C)C3=O" = > 100 µM (inactive)

Input "COc1ccc(/C=C2\CN(C)C/C(=C\c3ccc(OC)cc3)C2=O)cc1" . Output GI50: > 100 µM (inactive)

The molecule listed as "CN(C)/C=N/S(=O)(=O)c1nn2c(C=O)c(-c3ccc(-c4ccccc4)cc3)nc2s1" shows GI50 equal to 2.48 µM (inactive)

response.value for "Fc1cccc2c1cc1ccc3cccc4ccc2c1c34" (field: GI50) = > 100 µM (inactive)

The molecule listed as CCOC(=O)CCC(NC(=O)OCc1ccccc1)C(=O)NC(CCC(=O)OCC)C(=O)NC(CCC(=O)OCC)C(=O)NNC(=O)OC(C)(C)C (stereo unspecified) shows GI50 equal to > 10 µM (inactive)

So for "CC1=CC[C@@H](C(C)(C)O)C[C@@H]1O" , the logged GI50 turned out to be > 5000 µM (inactive)

====

GI50 reference
tested on: EKVX; experiment: NCI tumour cell line growth inhibition, 48 h
Calls of active or inactive are those of the source. Rule as the data show it: active = GI50 up to about 1.1 µM and inactive = higher.

Consider the reported GI50 for these compounds:
compound	GI50
CNC1=Nc2ccccc2C(=O)N2CSCC12 (stereo not given)	> 100 µM (inactive)
O=C(O)C1(Cc2ccccc2)Cc2cc3c(cc2C1)CCC3	54.2 µM (inactive)
C=C1C[C@@H]2O[C@H]3[C@H]4[C@@H](C[C@@H](C)[C@@H](OC(C)=O)[C@H]42)[C@@H](C)CO[C@@]3(C)[C@H](OC(C)=O)C[C@H]1O	> 100 µM (inactive)
Cc1nc2c(-c3ccccc3)[nH]c(C)c2c(=O)o1	> 100 µM (inactive)
O=C(/C(=C\C(=O)c1cccs1)c1ccsc1)c1ccc(Br)cc1	92.5 µM (inactive)
CCOC(=O)c1c(C)cc(=O)n2c1[nH]c1ccccc12	> 100 µM (inactive)

Note to self: GI50 of "Cc1ccccc1Cn1nc2ccccc2cc1=O" with EKVX was > 100 µM (inactive)

Record for C/C=C(/C)C(=O)O[C@H]1[C@H](O)CC(c2ccc3c(c2O)C(=O)C2=C(O)C4(OC)C(=O)C(C(N)=O)=C(O)[C@H](CC(=O)c5ccccc5O)C4CC2[C@@]3(C)OC)O[C@@H]1C (stereo not given in full) under target or system EKVX: GI50 reported as 0.0396 µM (active)

The reported GI50 value, EKVX, for "CCOC(=O)C(=O)/C(=C/NC(=S)c1ccncc1)C(=O)OCC" reads > 100 µM (inactive)

Kindly note: EKVX, "OCCCSCCO" , GI50 value reported: > 100 µM (inactive)
